tested on: NCI-H460 lung; assay: NCI-60 one-dose screen, 48 h; conditions: 10 µM unless noted
About 83,000 compounds went through this panel and 20% of them were active in at least one assay; those are over-represented in the sample as a whole. Calls of active or inactive are those of the source. The calls were made as follows: active = growth percent below 10; inactive = the rest.
Hi there, use one of these labels in your reply, thanks! 1 for active, 0 for inactive

Record excerpt, results attached:
| compound | assigned_label |
| --- | --- |
| COc1cc(N(CCCl)CCCl)ccc1C=Nc1ccccc1C(=O)O | 0 |
| CC[CH2][Pb]([CH2]CC)([CH2]CC)[O]C(=O)C(F)(F)F | 1 |
| C1CNC2CCCC2C1 (stereo unspecified) | 0 |
| CCN(CC)CCOc1c(C(C)C)cccc1C(C)C | 0 |
| CC(=O)Nc1ccc(Cc2ccc(NC(C)=O)cc2)cc1 | 0 |

Continue with the next compound.
Outcome logged for COc1c(O)c2c3c(c1OC)-c1ccccc1CC3N(C)CC2 (stereo unspecified) in this assay: 0

###

test system: EKVX NSCLC; test: NCI-60 one-dose screen, 48 h; conditions: 10 µM unless noted
The panel holds about 83,000 compounds, 20% with a hit somewhere; the sample as a whole holds those more often. Active and inactive are the calls of the source. The calls were made as follows: active = growth percent below 10; inactive = the rest.
Pick from active, inactive when you respond.

Please review the following examples before continuing.
| molecule | assigned_label |
| --- | --- |
| COC(=O)C[Se]C(=O)c1ccccc1OC(C)=O | inactive |
| c1cnc2c(c1)ccc1ncccc12 | inactive |
| CCOC(=O)/C=C(\C)Nc1ccc(N/C(C)=C/C(=O)OCC)c2c1Oc1ccccc1O2 | inactive |
| CC(=O)O[C@H]1C[C@H](O[C@H]2[C@@H](O)C[C@H](O[C@H]3[C@@H](O)C[C@H](O[C@H]4CC[C@@]5(C)C(CCC6C5C[C@@H](O)[C@]5(C)[C@@H](C7=CC(=O)OC7)CC[C@]65O)C4)O[C@@H]3C)O[C@@H]2C)O[C@H](C)[C@H]1O[C@@H]1O[C@H](CO)[C@@H](O)[C@H](O)[C@H]1O (some centres not stated) | active |
| c1ccc2nc(OCCN3CC3)ccc2c1 | inactive |

In this assay, the call recorded for `Cc1cccc(N=C2c3cc([N+](=O)[O-])ccc3-c3c2cc([N+](=O)[O-])cc3[N+](=O)[O-])c1` was what? inactive

Recorded call for C[C@]12CCC(=O)CC1CC[C@@H]1C2CC[C@@]2(C)C1CC[C@@H]2OC(=O)CC[Se][Se]CCC(=O)O[C@H]1CCC2[C@@H]3CCC4CC(=O)CC[C@]4(C)C3CC[C@@]21C (some centres not stated) ? inactive

###

Test system: LOX IMVI melanoma
Assay: NCI-60 one-dose screen, 48 h (100 = growth as untreated, 0 = no growth, -100 = all killed)
Settings: 10 µM unless noted
Protocol: Growth inhibition of the LOX IMVI human tumor cell line is measured as a screen for anti-cancer activity. Cells are grown in 96 well plates and exposed to the test compound for 48 hours. Compounds are tested at a single concentration, which is 10^-5 M for most compounds. The reported endpoint is percent growth (GI% or GIPRCNT), where numbers from 0 - 100% represent growth inhibition, and numbers from -100% - 0 represent cell death. For example, a value of 40 represents 60% growth inhibition. […]
The panel holds about 83,000 compounds, 20% with a hit somewhere; the sample as a whole holds those more often.
Label Criterion not met if growth falls below 40%; label Criterion met in every other case.

| compound | assigned_label |
| --- | --- |
| O=C1c2ccccc2C(=O)N1[N+](=O)[O-] | Criterion met |
| C[C@]12C[C@H](O)[C@H]3[C@@H](CCC4=CC(=O)CC[C@@]43C)[C@@H]1CC[C@@H]2O | Criterion met |
| CN1CC2CCC(C1)C2=O | Criterion met |

Does the compound `C/C(=N/OC(=O)N(C)C)c1ccc(Cl)cc1Cl` have recorded growth that is 40% or more? Criterion met

# bool: growth of `CC(C)Nc1ccc(Nc2ccccc2)cc1` >= 40% Criterion not met

Is growth at least 40%? Consider CC1([N+](=O)[O-])COP(=O)(Nc2ccc(F)cc2)OC1 (configuration not stated) Criterion met

Could you verify whether the entry `CC1(C)N=C(N)N=C(N)N1c1ccc(OCCCCOc2ccc(S(=O)(=O)F)cc2)c(Cl)c1` shows growth of no less than 40%? Criterion not met
